# Tested on: Recombinant human PDE5 (Homo sapiens, UniProt O76074)
# Construct: purchased Sigma-Aldrich
# Experimental protocol: Inhibition of PDE5-mediated enzymatic breakdown of cGMP
# Type: biochemical
# Experimental setup: 24 °C; Cheng-Prusoff
Measured parameter: Ki (µM)
Express it in µM; write the number only.

Q: Tell me its Ki given CC(=O)CCCCn1c(=O)c2c(ncn2C)n(C)c1=O as the entry.
A: 6.4

----------
# Tested on: Recombinant human PDE5 (Homo sapiens)
# Construct: purchased Sigma-Aldrich
# Experimental protocol: Inhibition of PDE5-mediated enzymatic breakdown of cGMP
# Type: biochemical
# Experimental setup: 28 °C
Measured parameter: pIC50
FYI, pIC50 means -log10 of a concentration in mol per litre.

Q: Tell me its pIC50 given CC(=O)CCCCn1c(=O)c2c(ncn2C)n(C)c1=O [pentoxifylline] as the entry.
A: 4.61

----------
# Tested on: Recombinant human PDE3
# Experimental protocol: Inhibition of PDE3-mediated enzymatic breakdown of cAMP
# Type: biochemical
# Experimental setup: 37 °C
Measured parameter: IC50 (µM)
Express it in µM; write the number only.

Q: Tell me its IC50 given CC(=O)CCCCn1c(=O)c2c(ncn2C)n(C)c1=O as the entry.
A: 15.8

----------
# Tested on: Recombinant human PDE3
# Experimental protocol: Inhibition of PDE3-mediated enzymatic breakdown of cAMP
# Assay type: biochemical
# Experimental setup: 28 °C; Cheng-Prusoff
Measured parameter: Ki (nM)
Express it in nM; write the number only.

Q: Tell me its Ki given CC(=O)CCCCn1c(=O)c2c(ncn2C)n(C)c1=O [pentoxifylline] as the entry.
A: 1020

----------
# Tested on: ABCC5 (Homo sapiens, UniProt O15440)
# Construct: inside-out vesicles (IOV)s where erythrocytes from healthy, human donors were sampled; endogenous in cells; host or cells: inside-out vesicles from erythrocytes of healthy human donors
# Sequence (O15440 whole entry): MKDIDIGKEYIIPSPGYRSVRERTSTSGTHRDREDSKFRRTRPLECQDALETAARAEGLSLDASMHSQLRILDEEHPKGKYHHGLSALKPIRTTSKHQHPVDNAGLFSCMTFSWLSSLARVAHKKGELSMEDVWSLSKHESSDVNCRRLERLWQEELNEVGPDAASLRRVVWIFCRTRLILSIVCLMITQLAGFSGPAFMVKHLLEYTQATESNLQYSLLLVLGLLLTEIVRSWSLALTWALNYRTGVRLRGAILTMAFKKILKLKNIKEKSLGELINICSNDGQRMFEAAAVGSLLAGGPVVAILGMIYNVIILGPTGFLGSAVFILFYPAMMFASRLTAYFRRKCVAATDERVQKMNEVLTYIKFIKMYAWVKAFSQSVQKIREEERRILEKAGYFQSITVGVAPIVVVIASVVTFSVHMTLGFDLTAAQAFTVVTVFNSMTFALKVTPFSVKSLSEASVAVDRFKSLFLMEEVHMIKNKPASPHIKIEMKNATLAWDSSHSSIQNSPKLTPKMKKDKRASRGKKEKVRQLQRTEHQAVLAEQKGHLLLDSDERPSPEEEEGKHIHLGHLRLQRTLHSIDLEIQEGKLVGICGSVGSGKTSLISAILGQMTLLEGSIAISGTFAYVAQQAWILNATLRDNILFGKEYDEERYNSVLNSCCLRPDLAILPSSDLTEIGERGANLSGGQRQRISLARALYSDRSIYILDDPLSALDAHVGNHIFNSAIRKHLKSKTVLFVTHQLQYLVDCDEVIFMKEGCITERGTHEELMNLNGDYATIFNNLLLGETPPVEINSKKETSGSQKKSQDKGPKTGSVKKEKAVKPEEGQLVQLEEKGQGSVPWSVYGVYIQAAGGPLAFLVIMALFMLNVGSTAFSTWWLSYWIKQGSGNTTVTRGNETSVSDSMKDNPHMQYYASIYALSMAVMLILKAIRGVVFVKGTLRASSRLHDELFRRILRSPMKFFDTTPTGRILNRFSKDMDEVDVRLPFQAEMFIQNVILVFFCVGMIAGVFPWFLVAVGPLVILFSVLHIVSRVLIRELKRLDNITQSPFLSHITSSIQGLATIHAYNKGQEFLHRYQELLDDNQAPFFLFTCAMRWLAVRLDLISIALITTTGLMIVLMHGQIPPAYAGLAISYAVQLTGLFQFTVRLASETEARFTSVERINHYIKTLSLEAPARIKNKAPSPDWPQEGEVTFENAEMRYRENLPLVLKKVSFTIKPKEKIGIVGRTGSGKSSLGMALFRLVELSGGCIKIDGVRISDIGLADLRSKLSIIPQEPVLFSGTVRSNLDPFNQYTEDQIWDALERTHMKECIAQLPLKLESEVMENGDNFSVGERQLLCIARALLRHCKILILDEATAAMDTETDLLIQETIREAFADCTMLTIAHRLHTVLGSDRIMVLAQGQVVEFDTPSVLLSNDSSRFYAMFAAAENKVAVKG
# Experimental protocol: Inhibition of [3H]-cGMP efflux in erythrocyte inside-out vesicles
# Type: biochemical
# Experimental setup: 34 °C
Measured parameter: pIC50
FYI, pIC50 means -log10 of a concentration in mol per litre.

Q: Tell me its pIC50 given CC(=O)CCCCn1c(=O)c2c(ncn2C)n(C)c1=O as the entry.
A: 6.05

----------
# Test system: Recombinant human PDE3
# Experimental protocol: Inhibition of PDE3-mediated enzymatic breakdown of cAMP
# Format: biochemical
# Experimental setup: 24 °C
# Description: Assessment of pentoxifyllines ability to inhibit the phosphodiesterase enzymes were performed by incubating cAMP or cGMP with seven different concentrations of pentoxifylline. […] Samples were analyzed for cGMP/GMP and cAMP/AMP content, using MS [14, 15]. Quantification of cAMP/AMP, cGMP/GMP and pentoxifylline in PDE- and intracellular access experiments were performed with liquid chromatography tandem mass spectrometry (LC–MS/MS). […]
Measured parameter: pIC50
FYI, pIC50 means -log10 of a concentration in mol per litre.

Q: Tell me its pIC50 given CC(=O)CCCCn1c(=O)c2c(ncn2C)n(C)c1=O as the entry.
A: 4.53

----------
# Tested on: Recombinant human PDE5 (Homo sapiens)
# Construct: purchased Sigma-Aldrich
# Experimental protocol: Inhibition of PDE5-mediated enzymatic breakdown of cGMP
# Format: biochemical
# Experimental setup: 24 °C
Measured parameter: IC50 (µM)
Express it in µM; write the number only.

Q: Tell me its IC50 given CC(=O)CCCCn1c(=O)c2c(ncn2C)n(C)c1=O as the entry.
A: 25.2
